Below, each entry is listed with its recorded Bottom.
TESTED_ON: T1, human chemokine (C-C motif) receptor 8 (CCR8) protein (human, UniProt P51685 1-355)
T1 construct: whole, on cells; also called human CCR8
PROTOCOL_DESCRIPTION: cell binding, CCR8-expressing CHO-K1 cells, curve fit
Number only, please.

Example entries begin here.
INSERT INTO results (binder, measurement_type, recorded_measurement) VALUES
  ('88-H2L2 (antibody, V domains shown, Humanized 88D2C6) VH: EVQLVESGGGLVQPGGSLKLSCAASGFTFNPNAMNWVRQASGKGLEWVGRIRSKSNNYATYYADSVKDRFTISRDDSKNTAYLQMNNLKTEDTAVYYCVRGKDDGYRHYAMDYWGQGTTVTVSS VL: DIVMTQSPLSLPVTPGEPASISCRSSKSLLHSNANTYLYWFLQKPGQSPQLLIYRMSNLASGVPDRFSGSGSGTAFTLKISRVEAEDVGVYYCMQHLEYPFTFGGGTKVEIK', 'Bottom', 2490),
  ('88-H3L2 (antibody, V domains shown, Humanized 88D2C6) VH: EVQLVESGGGLVQPGGSLKLSCAASGFTFNPNAMNWVRQASGKGLEWVARIRSKSNNYATYYADSVKDRFTISRDDSKNTLYLQMNNLKTEDTAVYYCVRGKDDGYRHYAMDYWGQGTTVTVSS VL: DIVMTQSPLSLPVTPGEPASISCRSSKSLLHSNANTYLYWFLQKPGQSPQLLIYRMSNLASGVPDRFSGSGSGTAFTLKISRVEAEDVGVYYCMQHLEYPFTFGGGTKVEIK', 'Bottom', 3940),
  ('88-H3L3 (antibody, V domains shown, Humanized 88D2C6) VH: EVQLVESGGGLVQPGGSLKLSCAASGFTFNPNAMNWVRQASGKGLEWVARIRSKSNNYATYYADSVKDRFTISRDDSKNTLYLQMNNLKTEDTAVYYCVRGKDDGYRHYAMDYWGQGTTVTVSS VL: DIVMTQAPLSLPVTPGEPVSISCRSSKSLLHSNANTYLYWFLQKPGQSPQLLIYRMSNLASGVPDRFSGSGSGTAFTLKISRVEAEDVGVYYCMQHLEYPFTFGGGTKLEIK', 'Bottom', 3470),
  ('88-H1L3 (antibody, V domains shown, Humanized 88D2C6) VH: EVQLVESGGGLVQPGGSLKLSCAASGFTFNPNAMNWVRQASGKGLEWVGRIRSKSNNYATYYADSVKDRFTISRDDSKNTAYLQMNSLKTEDTAVYYCTRGKDDGYRHYAMDYWGQGTTVTVSS VL: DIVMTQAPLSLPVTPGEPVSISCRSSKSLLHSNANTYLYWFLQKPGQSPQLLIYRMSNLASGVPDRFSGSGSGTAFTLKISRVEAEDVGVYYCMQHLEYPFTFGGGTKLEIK', 'Bottom', 2140);

Please look at the following binder next.
What does the record list as Bottom for 88-H2L3 (antibody, V domains shown, Humanized 88D2C6) VH: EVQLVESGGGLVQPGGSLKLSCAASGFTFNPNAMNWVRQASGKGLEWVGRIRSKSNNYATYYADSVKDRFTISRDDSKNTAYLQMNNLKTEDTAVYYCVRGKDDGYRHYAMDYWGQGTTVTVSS VL: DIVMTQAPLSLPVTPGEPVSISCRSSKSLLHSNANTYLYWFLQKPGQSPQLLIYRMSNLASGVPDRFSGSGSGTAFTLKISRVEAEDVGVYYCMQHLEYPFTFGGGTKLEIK ? 2280
